Sourced from the supplement of paper PMC12632987

target: UCHL1, P09936; assay: median log2 fold change of GCK-ALFA target abundance (FLAG IP / Myc IP barcode read proportion) (log2 ratio); each designed protein is fused to an ALFA-tag nanobody in HEK293 cells to bring the named protein to FLAG-tagged glucokinase (GCK); Myc marks an untargeted standard; higher = target protein stabilised (more abundant); details: target protein: 3xFLAG-MCP-GCK-ALFA reporter; HEK293 landing pad (RPLP)
Sequence (P09936 whole entry, looked up, the tested form may be a part): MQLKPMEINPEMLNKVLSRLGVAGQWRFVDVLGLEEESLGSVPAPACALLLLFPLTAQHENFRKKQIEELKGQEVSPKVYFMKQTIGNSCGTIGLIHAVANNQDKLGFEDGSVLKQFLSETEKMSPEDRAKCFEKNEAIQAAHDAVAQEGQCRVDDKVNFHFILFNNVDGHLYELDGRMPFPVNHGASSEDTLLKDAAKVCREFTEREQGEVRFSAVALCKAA
PARAMETER_MEASURED: median log2 fold change
Just the number, please, no unit after it.

Q. Need median log2 fold change of uchl1_2_7521 (protein) KAEFVGVLVDMTSTDPETGKTYRYRRNYIGTASAIPAMMAEVERDVLNFQENVGLPVDVALHIVASTEAALEAARAEAKKMAARLAAKGAKVTITGEVAK , thanks.
A. -1.03

Q. Param item: uchl1_2_7552 (protein) KTQFVGVLVTITSTNPETGEVKTVRKTLIGTEEGIEAMAKEILEMALEFKEQTKGPVEVKVEVVVSTEETAKKMEEELKKLEEELKKEGIKVEVEVKVVK
A. 0.325

Q. Param item: uchl1_143_7470 (protein) GRPTPPTLTVNLTFDETTTPEEIRAALNAAIDEAAAAGKNLTITITVPADSNKRLMVTTVARRVAREAAKRYRDKLPELRILATDAATGKTQLIAEYVNE
A. 0.272

Q. Param item: uchl1_143_7479 (protein) GAAPRPVVTTTLTFTEEDTPEEIRARITAALRALVATGQDGVLLLTVPPNPHMRVMVNTVARRALREVAQATHAPGVTLTVQARDAETGKVDTLATAVLE
A. 0.219
